- protocol notes: Drug degradation in pH >10 NH3 after 7 days by HPLC method
measured parameter: Drug degradation

CN=S(=O)(c1ccc(C(F)(F)F)cc1)N(C)C (configuration not stated) = 10%
CN=S(C)(=O)c1ccc(C(F)(F)F)cc1 (configuration not stated) = < 10%
CNS(=N)(=O)c1ccc(C(F)(F)F)cc1 (configuration not stated) = < 10%
CS(C)(=O)=NC(=O)Nc1ccc(C(F)(F)F)cc1 = 14%
CS(C)(=O)=Nc1ccc(C(F)(F)F)cc1 = 20%
CS(C)(=N)=NC(=O)Nc1ccc(C(F)(F)F)cc1 = < 10%
N=S1(=Nc2ccc(C(F)(F)F)cc2)CCCCC1 = < 10%
CS(C)(=N)=NC(=O)c1ccc(C(F)(F)F)cc1 = 34%

The compound listed as O=S1(c2ccc(C(F)(F)F)cc2)=NCCCC1 (configuration not stated) has a reported Drug degradation of 34%

Drug degradation reported for this compound `CS(C)(=O)=NC(=O)c1ccc(C(F)(F)F)cc1` : < 10%

The reported Drug degradation of the compound CN=S(=O)(NC)c1ccc(C(F)(F)F)cc1 (configuration not stated) was < 10%

get_value(item= `O=S1(=Nc2ccc(C(F)(F)F)cc2)CCCCC1` , readout=Drug degradation) returns < 10%

###

- protocol notes: physchem
- run conditions: acetonitrile/water mixture
- Description: Solubility of the compound in acetonitrile/water mixture at 10 mM measured after 24 by HPLC-UV method
This listing pairs compounds with measured solubility at 10000 µM.
Express your answer in µg/mL, writing the number without its unit.

CS(C)(=O)=NC(=O)Nc1ccc(C(F)(F)F)cc1 = 44
CS(=O)(=Nc1ccc(C(F)(F)F)cc1)C1CC1 (stereo not given) = 40
CS(=O)(=Nc1ccc(C(F)(F)F)cc1)c1ccncc1 (stereo not given) = 44

Please find the next compound below.
# solubility at 10000 µM (compound: `O=S1(=Nc2ccncc2)CCCCC1` ) is 42

###

Each item that follows carries a reported logP.
- protocol notes: physchem
- run conditions: octanol/water, pH 10
Enter the number alone.

CS(=O)(=O)Cc1ccc(C(F)(F)F)cc1 = 1.3
CS(C)(=N)=NC(=O)c1ccc(C(F)(F)F)cc1 = 0.4
CC(C)(C)OC(=O)Nc1ccc(C(F)(F)F)cc1 = 4.4
CN(c1ccc(C(F)(F)F)cc1)S(C)(=O)=O = 2.5

Lab note: measured logP of `NC(=O)c1ccc(C(F)(F)F)cc1` was 0.3

logP in this record for `CS(C)(=O)=Nc1ccc(C(F)(F)F)cc1` : 1.4

Consider `CC(=O)N(C)c1ccc(C(F)(F)F)cc1` . Its measured logP is 0.8

The compound CNS(C)(=O)=Nc1ccc(C(F)(F)F)cc1 (stereo not drawn) showed logP equal to 1.6

According to the records, this compound `CC(C)(C)NC(=O)Nc1ccc(C(F)(F)F)cc1` displays logP of 3.4

logP measured on `O=S1(=Nc2ccc(C(F)(F)F)cc2)CCCCC1` = 2.8

###

- protocol notes: in vitro
- run conditions: PAMPA, pH 7.4
- Description: Apparent permeability of the compound at pH 7.4 by PAMPA
We label by threshold. Values of Papp strictly beneath 6 ×10⁻⁶ cm/s are class 1. Values of 6 ×10⁻⁶ cm/s and up are class 0.

O=S1(=Nc2ccccc2Cl)CCCCC1 = class 0
O=S1(=Nc2cccnc2)CCCCC1 = class 1
O=S1(=Nc2cc(C(F)(F)F)cc(C(F)(F)F)c2)CCCCC1 = class 1
CS(=O)(=Nc1ccc(C(F)(F)F)cc1)c1cccnc1 (stereo not given) = class 0
CCS(C)(=O)=Nc1ccc(C(F)(F)F)cc1 (stereo not given) = class 0

## Input # strict comparison: is reported Papp < 6 ×10⁻⁶ cm/s? input = `CS(=O)(=O)NC(=O)Nc1ccc(C(F)(F)F)cc1`
## Output class 1

## Input Does the reported Papp of `CNC(=O)c1ccc(C(F)(F)F)cc1` stay below 6 ×10⁻⁶ cm/s?
## Output class 1

## Input Below 6 ×10⁻⁶ cm/s on Papp? Entry O=S1(c2ccc(C(F)(F)F)cc2)=NCCCC1 (stereo not given)
## Output class 0

## Input In plain terms, does `O=S1(=Nc2ccncc2)CCCCC1` come in under 6 ×10⁻⁶ cm/s for Papp?
## Output class 1

## Input Check if Papp falls below 6 ×10⁻⁶ cm/s for `O=S1(=Nc2ccc(C(F)(F)F)cc2)CCCC1` .
## Output class 0

###

- protocol notes: Apparent partition coefficient, log P of the compound in n-octanol/aqueous mixture at pH 12 by potentiometric titration method
- Type: physicochemical
- run conditions: octanol/water
Decide using logP: a value greater than or equal to 2 is Criterion met, a smaller one is Criterion not met.

CS(C)(=N)=Nc1ccc(C(F)(F)F)cc1 = Criterion not met
CNS(=N)(=O)c1ccc(C(F)(F)F)cc1 (stereo not given) = Criterion not met
O=S1(=N[C@H]2CC[C@@H](C(F)(F)F)CC2)CCCCC1 = Criterion met

Attention now turns to another entry.
## Input Does `CS(C)(=O)=N[C@H]1CC[C@@H](C(F)(F)F)CC1` have a reported logP of at least 2?
## Output Criterion met

###

- protocol notes: physchem
- run conditions: n-octanol/aqueous mixture, pH 2
Reported logD values follow for various compounds
Simply state the number, no unit and no words.

CNS(=O)(=O)c1ccc(C(F)(F)F)cc1 = 2.3

GET /value?item= `CS(=O)(=O)NC(=O)c1ccc(C(F)(F)F)cc1` &field=logD returns 1.7

The compound `CS(=O)(=O)NC(=O)Nc1ccc(C(F)(F)F)cc1` showed logD equal to 1.9

# logD (compound: `NS(=O)(=O)c1ccc(C(F)(F)F)cc1` ) is 1.4

###

- protocol notes: physchem
- run conditions: aqueous
measured parameter: log10(solubility thermodynamic) (log10 of the value in µg/mL)
Each number you see is log10 of solubility thermodynamic, and the unit inside the log is µg/mL.

O=S1(=Nc2ccc(C(F)(F)F)cc2)CCCCC1 = 1.85
CS(C)(=O)=NC(=O)Nc1ccc(C(F)(F)F)cc1 = 1.60
CN=S(=O)(c1ccc(C(F)(F)F)cc1)N(C)C (stereo not drawn) = 3.08

Looking up `CC(=O)N(C)c1ccc(C(F)(F)F)cc1` , I see its log10(solubility thermodynamic) listed as 3.11

Notebook: CS(=N)(=O)c1ccc(C(F)(F)F)cc1 (stereo not drawn) , log10(solubility thermodynamic) read as 3.96

Query `CNS(=O)(=O)c1ccc(C(F)(F)F)cc1` yields log10(solubility thermodynamic) of 2.95

// log10(solubility thermodynamic) value for `O=S1(=Nc2ccc(C(F)(F)F)cc2)CCCC1` : 3.78

// field: log10(solubility thermodynamic); key: O=S1(c2ccc(C(F)(F)F)cc2)=NCCCC1 (stereo not drawn) ; value = 3.67

Entry `CS(C)(=O)=N[C@H]1CC[C@@H](C(F)(F)F)CC1` , log10(solubility thermodynamic) reported as 2.48

Input `CS(=O)(=O)Nc1ccc(C(F)(F)F)cc1` . Output log10(solubility thermodynamic): 2.78

The molecule listed as `CC(C)(C)NC(=O)Nc1ccc(C(F)(F)F)cc1` shows log10(solubility thermodynamic) equal to 1.30

The recorded log10(solubility thermodynamic) for entry `CN(C)S(=O)(=O)c1ccc(C(F)(F)F)cc1` equals 1.95

###

- run conditions: octanol/water, pH 7.4
If the reported logD equals or exceeds 2, assign true (1). If not, assign false (0).

CS(C)(=N)=Nc1ccc(C(F)(F)F)cc1 = false (0)

## Input Could you tell me if the measured logD of CNS(=N)(=O)c1ccc(C(F)(F)F)cc1 (stereo not given) reaches 2 or more?
## Output false (0)

## Input Entry `CS(C)(=O)=N[C@H]1CC[C@@H](C(F)(F)F)CC1` : is its logD no less than 2?
## Output true (1)

## Input Dear colleague, could you confirm whether `O=S1(=N[C@H]2CC[C@@H](C(F)(F)F)CC2)CCCCC1` has logD at or above 2?
## Output true (1)

###

- protocol notes: physchem
- run conditions: octanol/water, pH 10
Binary label based on logP with cut-off 2: below gives 1, not below gives 0.

Here are 6 compounds together with their reported answers.
CS(C)(=N)=NC(=O)Nc1ccc(C(F)(F)F)cc1 = 1
CC(C)(C)NC(=O)c1ccc(C(F)(F)F)cc1 = 0
CN(C)S(=O)(=O)c1ccc(C(F)(F)F)cc1 = 0
CS(C)(=N)=Nc1ccc(C(F)(F)F)cc1 = 1
CN=S(=O)(NC)c1ccc(C(F)(F)F)cc1 (configuration not stated) = 1
C[S+]([O-])Cc1ccc(C(F)(F)F)cc1 (configuration not stated) = 1

Please look at the following compound next.
## Input Say whether its logP is strictly beneath 2. Entry: CN(C)S(C)(=O)=Nc1ccc(C(F)(F)F)cc1 (configuration not stated)
## Output 0

###

Property: hepatic extraction ratio at 1 µM; scope: individual compounds
- protocol notes: in vitro
- run conditions: human, liver microsomes

Example entries and their recorded answers appear below.
CS(=O)(=Nc1ccc(C(F)(F)F)cc1)c1ccncc1 (configuration not stated) = 0.41
Cn1cc(N=S2(=O)CCCCC2)cn1 = < 0.23
CN=S(C)(=O)c1ccc(C(F)(F)F)cc1 (configuration not stated) = < 0.23
CS(C)(=O)=NC(=O)c1ccc(C(F)(F)F)cc1 = 0.39
CN(C)S(C)(=O)=Nc1ccc(C(F)(F)F)cc1 (configuration not stated) = 0.48

Recorded result, CCS(C)(=O)=Nc1ccc(C(F)(F)F)cc1 (configuration not stated) , hepatic extraction ratio at 1 µM: < 0.23

The reported value for `CS(C)(=O)=N[C@H]1CC[C@@H](C(F)(F)F)CC1` in terms of hepatic extraction ratio at 1 µM is < 0.23

The compound `CS(C)(=N)=NC(=O)c1ccc(C(F)(F)F)cc1` showed hepatic extraction ratio at 1 µM equal to < 0.23

For reference, reported hepatic extraction ratio at 1 µM for `CNS(=O)(=O)c1ccc(C(F)(F)F)cc1` stands at < 0.23

`CS(C)(=N)=Nc1ccc(C(F)(F)F)cc1` yielded hepatic extraction ratio at 1 µM of < 0.23

For `O=S1(=Nc2ccc(F)cc2)CCCCC1` the compound record lists hepatic extraction ratio at 1 µM as 0.25

What the record says about `O=S1(=N[C@H]2CC[C@@H](C(F)(F)F)CC2)CCCCC1` : hepatic extraction ratio at 1 µM is 0.43

For record `CC(C)(C)NC(=O)c1ccc(C(F)(F)F)cc1` the listed hepatic extraction ratio at 1 µM is < 0.23

Entry under test: `O=S1(=Nc2ccncc2)CCCCC1` . Its hepatic extraction ratio at 1 µM was < 0.23

get_value(item= `CS(=O)(=O)Nc1ccc(C(F)(F)F)cc1` , readout=hepatic extraction ratio at 1 µM) returns < 0.23

Short answer for CN=S(=O)(NC)c1ccc(C(F)(F)F)cc1 (configuration not stated) : hepatic extraction ratio at 1 µM was < 0.23

Values from ChEMBL document CHEMBL3992492
